# credit: ChEMBL document CHEMBL4346735

Some molecules, each annotated with its measured remaining at 0.5 h, 1 µM.
Assay: Metabolic stability in human liver microsomes assessed as parent compound remaining at 1 uM preincubated for 5 mins followed by NADPH addition after 30 mins by LC-MS/MS analysis
Assay type: ADME, Microsome
Conditions: read-out: Stability
MEASUREMENT TYPE: remaining at 0.5 h, 1 µM

given_smiles=Cc1cccc(Cl)c1C(=O)c1cn(-c2ccc(C(=O)O)cc2)c2c(F)cccc12 measurement_type="remaining at 0.5 h, 1 µM" value_reported=66%
given_smiles=O=C(O)c1ccc(-n2cc(C(=O)c3c(Cl)cccc3Cl)c3cccnc32)c(F)c1 measurement_type="remaining at 0.5 h, 1 µM" value_reported=100%
given_smiles=Cc1cccc(Cl)c1C(=O)c1cn(-c2ccc(C(=O)O)cc2F)c2cccc(F)c12 measurement_type="remaining at 0.5 h, 1 µM" value_reported=75%

---

Target: Cytochrome P450 3A4 (Homo sapiens)
Sequence (P08684 whole entry): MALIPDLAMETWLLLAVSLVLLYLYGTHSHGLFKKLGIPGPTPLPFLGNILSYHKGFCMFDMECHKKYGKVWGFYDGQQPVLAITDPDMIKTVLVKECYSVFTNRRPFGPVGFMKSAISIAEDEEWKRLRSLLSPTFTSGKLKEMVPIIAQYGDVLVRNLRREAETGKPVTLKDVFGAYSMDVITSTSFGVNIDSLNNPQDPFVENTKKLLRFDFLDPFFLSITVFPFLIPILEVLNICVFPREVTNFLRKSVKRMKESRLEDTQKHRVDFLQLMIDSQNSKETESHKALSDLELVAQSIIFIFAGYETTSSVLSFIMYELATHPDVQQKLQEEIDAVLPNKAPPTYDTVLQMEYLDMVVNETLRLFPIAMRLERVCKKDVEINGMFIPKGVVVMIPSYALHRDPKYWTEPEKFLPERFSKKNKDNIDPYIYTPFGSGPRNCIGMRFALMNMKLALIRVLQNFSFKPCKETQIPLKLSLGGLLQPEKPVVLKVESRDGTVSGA
Assay: Inhibition of CYP3A4 in human liver microsomes using midazolam as substrate preincubated for 5 mins followed by NADPH addition measured after 10 mins by LC-MS/MS analysis
Some compounds, each annotated with its measured IC50.
MEASUREMENT TYPE: IC50

given_smiles=O=C(O)c1ccc(-n2cc(C(=O)c3c(Cl)cccc3Cl)c3ccccc32)cc1 measurement_type=IC50 value_reported="> 100 µM"
given_smiles=O=C(O)c1ccc(-n2cc(C(=O)c3c(Cl)cccc3Cl)c3c(F)cccc32)cc1 measurement_type=IC50 value_reported="> 50 µM"
given_smiles=O=C(O)c1ccc(-n2cc(C(=O)c3c(F)cccc3Cl)c3ccccc32)cc1 measurement_type=IC50 value_reported="> 100 µM"
given_smiles=O=C(O)c1ccc(-n2cc(C(=O)c3c(Cl)cccc3C(F)(F)F)c3ccccc32)cc1 measurement_type=IC50 value_reported="37 µM"
given_smiles=Cc1cccc(Cl)c1C(=O)c1cn(-c2ccc(C(=O)O)cc2)c2ccccc12 measurement_type=IC50 value_reported="> 50 µM"

---

Target: UniProt P35398
Sequence (P35398 whole entry, the tested form may be a part): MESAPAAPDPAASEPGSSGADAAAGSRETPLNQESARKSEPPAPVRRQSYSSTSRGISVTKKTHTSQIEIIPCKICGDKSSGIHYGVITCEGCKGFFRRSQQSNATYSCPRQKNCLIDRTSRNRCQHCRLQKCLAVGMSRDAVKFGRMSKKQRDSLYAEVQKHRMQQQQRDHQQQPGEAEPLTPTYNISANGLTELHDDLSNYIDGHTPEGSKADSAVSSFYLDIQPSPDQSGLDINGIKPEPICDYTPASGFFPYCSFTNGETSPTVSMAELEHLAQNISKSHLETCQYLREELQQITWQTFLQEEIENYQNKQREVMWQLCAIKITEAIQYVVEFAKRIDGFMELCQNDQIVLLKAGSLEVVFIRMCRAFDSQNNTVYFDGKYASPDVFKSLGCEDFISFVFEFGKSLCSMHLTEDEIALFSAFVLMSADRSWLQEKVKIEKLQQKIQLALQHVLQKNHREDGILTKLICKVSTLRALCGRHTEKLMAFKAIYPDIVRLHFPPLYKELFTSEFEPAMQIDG
Experiment: Inhibition of GAL4-DBD fused RORalpha LBD (unknown origin) expressed in HEK293T cells
pIC50: −log10 of the molar value.
Some molecules, each annotated with its measured pIC50.
MEASUREMENT TYPE: pIC50

given_smiles=O=C(O)c1ccc(-n2cc(C(=O)c3c(Cl)cccc3C(F)(F)F)c3c(F)cccc32)c(F)c1 tgt="UniProt P35398" measurement_type=pIC50 value_reported="< 4.52"
given_smiles=O=C(O)c1ccc(-n2cc(C(=O)c3c(Cl)cccc3C(F)(F)F)c3cccnc32)c(F)c1 tgt="UniProt P35398" measurement_type=pIC50 value_reported="< 4.52"
given_smiles=Cc1cccc(Cl)c1C(=O)c1cn(-c2ccc(C(=O)O)cc2)c2ccccc12 tgt="UniProt P35398" measurement_type=pIC50 value_reported="< 4.52"
given_smiles=O=C(O)c1ccc(-n2cc(C(=O)c3c(Cl)cccc3Cl)c3ccccc32)c(F)c1 tgt="UniProt P35398" measurement_type=pIC50 value_reported="< 4.52"
given_smiles=O=C(O)c1ccc(-n2cc(C(=O)c3c(Cl)cccc3Cl)c3cccc(F)c32)cc1 tgt="UniProt P35398" measurement_type=pIC50 value_reported="< 5.00"

---

Some compounds, each annotated with its measured inhibition.
Target: Nuclear receptor ROR-gamma (Mus musculus)
Sequence (whole entry): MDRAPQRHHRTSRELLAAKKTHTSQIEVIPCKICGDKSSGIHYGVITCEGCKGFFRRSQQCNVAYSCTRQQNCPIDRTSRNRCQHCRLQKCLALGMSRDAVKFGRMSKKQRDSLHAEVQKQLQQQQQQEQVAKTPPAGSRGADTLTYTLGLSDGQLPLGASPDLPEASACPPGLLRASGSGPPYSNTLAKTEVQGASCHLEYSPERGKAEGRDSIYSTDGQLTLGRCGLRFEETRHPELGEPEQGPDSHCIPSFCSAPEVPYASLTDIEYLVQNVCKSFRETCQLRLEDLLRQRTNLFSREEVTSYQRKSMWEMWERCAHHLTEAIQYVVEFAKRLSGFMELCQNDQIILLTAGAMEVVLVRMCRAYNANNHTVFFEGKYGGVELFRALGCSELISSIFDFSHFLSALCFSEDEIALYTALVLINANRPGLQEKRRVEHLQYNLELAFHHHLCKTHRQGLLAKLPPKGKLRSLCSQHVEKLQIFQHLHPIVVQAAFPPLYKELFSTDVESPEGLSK
Assay: Transrepression of RORgammat in Balb/c mouse splenocytes assessed as inhibition of anti-CD3/anti-CD28 stimulated IL-17 gene expression at 3 uM measured after 24 hrs in presence of anti-CD3/anti-CD28
Type: cell-based
MEASUREMENT TYPE: inhibition (%)

given_smiles=O=C(O)c1ccc(-n2cc(C(=O)c3c(Cl)cccc3C(F)(F)F)c3cccc(F)c32)cc1 tgt="Nuclear receptor ROR-gamma (Mus musculus)" measurement_type=inhibition value_reported=46
given_smiles=O=C(O)c1ccc(-n2cc(C(=O)c3c(Cl)cccc3Cl)c3cccc(F)c32)cc1 tgt="Nuclear receptor ROR-gamma (Mus musculus)" measurement_type=inhibition value_reported=52
given_smiles=O=C(O)c1ccc(-c2nn(C(=O)c3c(Cl)cccc3Cl)c3ccccc23)cc1 tgt="Nuclear receptor ROR-gamma (Mus musculus)" measurement_type=inhibition value_reported=48
given_smiles=Cc1cccc(Cl)c1C(=O)c1cn(-c2ccc(C(=O)O)cc2)c2ccccc12 tgt="Nuclear receptor ROR-gamma (Mus musculus)" measurement_type=inhibition value_reported=49
